# assayed_system: CDK2 (human) (UniProt P24941)
# protocol_description: Enzyme Assay
# stated_conditions: concentration not given here
endpoint: inhibition (%)

> print(dat)
                                   compound  endpoint.value
1  CC1(C(=O)N2CCC(Nc3nc(N)c(C(=O)c4c(F)cccc4F)s3)CC2)CCCCC1              -5

(A) COc1ccc(OC)c(CC(=O)N2CCC(Nc3nc(N)c(C(=O)c4c(F)cccc4F)s3)CC2)c1
(B) COc1ccc2[nH]c(C(=O)N3CCC(Nc4nc(N)c(C(=O)c5c(F)cccc5F)s4)CC3)cc2c1
// select label with min value of measured inhibition from [ A , B ] When you have decided, please share the label of that item.
B
(B: 35%, A: 57%)
